- test-summary: Drug level in C3H/HeJ mouse blood at 0.7 mg/kg, in administered at 2 and 5 hrs followed by 1.6 mg/kg, ip infusion at 30, 48, 72 and 96 hrs measured at 97 hrs
- Assay type: ADME, organism-based
- conditions: read-out: Drug uptake
parameter-measured: concentration at 97 h
The reply should consist of the numeric value with the unit placed after it.

So for "CO[C@H]1C[C@@H]2CC[C@@H](C)[C@@](O)(O2)C(=O)C(=O)N2CCCC[C@H]2C(=O)O[C@H]([C@H](C)C[C@@H]2CC[C@@H](O)[C@H](OC)C2)CC(=O)[C@H](C)/C=C(\C)[C@@H](O)[C@@H](OC)C(=O)[C@H](C)C[C@H](C)/C=C/C=C/C=C/1C" , the logged concentration at 97 h turned out to be 622 ng/mL
